test system: ESO26 (Esophageal Adenocarcinoma); assay: Bliss excess, mean over the matrix (fraction); higher = more synergy
# Bliss excess values compiled below
# respond with the number and nothing more

Below, each entry is followed by its recorded Bliss excess result.
Compound	Bliss excess
Cc1c2c(nn1C)CSCc1cc(n(C)n1)CSc1cc(c3ccccc3c1)OCCCc1c(C(=O)O)n(C)c3c-2c(Cl)ccc13 [AZD5991] + C[C@@H](Nc1cc(F)cc(F)c1)c1cc(C(=O)N(C)C)cc2c(=O)cc(N3CCOCC3)oc12 [AZD8186] (first compound max 1 µM, 7x7, partner max 3 µM)	-0.0171
CCN(CCO)CCCOc1ccc2c(Nc3cc(CC(=O)Nc4cccc(F)c4)[nH]n3)ncnc2c1 [AZD2811] + O=C(c1cc(Cc2n[nH]c(=O)c3ccccc23)ccc1F)N1CCN(C(=O)C2CC2)CC1 [Olaparib] (first compound max 1 µM, 7x7, partner max 10 µM)	-0.0311
CC(=O)c1c(C)c2cnc(Nc3ccc(N4CCNCC4)cn3)nc2n(C2CCCC2)c1=O [Palbociclib] + Cc1c2c(nn1C)CSCc1cc(n(C)n1)CSc1cc(c3ccccc3c1)OCCCc1c(C(=O)O)n(C)c3c-2c(Cl)ccc13 [AZD5991] (first compound max 10 µM, 7x7, partner max 1 µM)	-0.0467
Cn1cnc2c(F)c(Nc3ccc(Br)cc3Cl)c(C(=O)NOCCO)cc21 [Selumetinib] + C[C@@H]1COCCN1C2=NC(=NC(=C2)C3(CC3)[S@](=N)(=O)C)C4=C5C=CNC5=NC=C4 [AZD6738] (first compound max 10 µM, 7x7, partner max 10 µM)	-0.0189

Let us examine a further case.
IN: Tell me its Bliss excess given C=CCn1c(=O)c2cnc(Nc3ccc(N4CCN(C)CC4)cc3)nc2n1-c1cccc(C(C)(C)O)n1 [AZD1775] + C1CN(CCC1(C(=O)N[C@@H](CCO)C2=CC=C(C=C2)Cl)N)C3=NC=NC4=C3C=CN4 [Capivasertib] (first compound max 3 µM, partner max 3 µM) as the entry.
OUT: -0.0424

====

# combination Emax values compiled below
system: PEO1 (Ovarian Carcinoma); assay: combination Emax (second highest fraction inhibited in the dose matrix, 72 h); higher = more inhibition; extreme values may be limits of the assay
# respond with the number and nothing more

Compound	combination Emax
CN(C)CCCOc1ccc(-c2ccc3ncc4c(c3c2)n(C2CCOCC2)c(=O)n4C)cn1 [AZD0156] + C[C@@H]1COCCN1C2=NC(=NC(=C2)C3(CC3)[S@](=N)(=O)C)C4=C5C=CNC5=NC=C4 [AZD6738] (first compound max 1 µM, 7x7, partner max 10 µM)	0.533
C[C@@H](Nc1cc(F)cc(F)c1)c1cc(C(=O)N(C)C)cc2c(=O)cc(N3CCOCC3)oc12 [AZD8186] + C1CN(CCC1(C(=O)N[C@@H](CCO)C2=CC=C(C=C2)Cl)N)C3=NC=NC4=C3C=CN4 [AZD5363] (first compound max 10 µM, 7x7, partner max 10 µM)	0.351
Cc1c2c(nn1C)CSCc1cc(n(C)n1)CSc1cc(c3ccccc3c1)OCCCc1c(C(=O)O)n(C)c3c-2c(Cl)ccc13 [AZD5991] + CC1(C)CCC(CN2CCN(c3ccc(C(=O)NS(=O)(=O)c4ccc(NCC5CCOCC5)c([N+](=O)[O-])c4)c(Oc4cnc5[nH]ccc5c4)c3)CC2)=C(c2ccc(Cl)cc2)C1 [Venetoclax] (first compound max 1 µM, 7x7, partner max 1 µM)	0.164
O=C(c1cc(Cc2n[nH]c(=O)c3ccccc23)ccc1F)N1CCN(C(=O)C2CC2)CC1 [Olaparib] + CC1(C)CCC(CN2CCN(c3ccc(C(=O)NS(=O)(=O)c4ccc(NCC5CCOCC5)c([N+](=O)[O-])c4)c(Oc4cnc5[nH]ccc5c4)c3)CC2)=C(c2ccc(Cl)cc2)C1 [Venetoclax] (first compound max 10 µM, 7x7, partner max 1 µM)	0.146

Let us examine a further case.
IN: Tell me its combination Emax given C[C@@H]1COCCN1c1cc(C2([S@](C)(=N)=O)CC2)nc(-c2ccnc3[nH]ccc23)n1 [AZD6738] + C1CC(C1)(C(=O)[O-])C(=O)[O-].N.N.[Pt+2] [Carboplatin] (first compound max 10 µM, 7x7, partner max 10 µM) as the entry.
OUT: 0.675

====

tested on: 22RV1 (Prostate Carcinoma); assay: Bliss excess, mean over the matrix (fraction); higher = more synergy
Value Type: Bliss excess
# respond with the number and nothing more

Below, each entry is followed by its recorded Bliss excess result.
Compound	Bliss excess
CS(=O)(=O)CCNCc1ccc(-c2ccc3ncnc(Nc4ccc(OCc5cccc(F)c5)c(Cl)c4)c3c2)o1 [Lapatinib] + C[C@@H](Oc1cc(-c2cnn(C3CCNCC3)c2)cnc1N)c1c(Cl)ccc(F)c1Cl [Crizotinib] (first compound max 10 µM, 7x7, partner max 10 µM)	-0.108
Cc1cc2ncnn2cc1Nc1ncc2c(n1)n(C1CCOCC1)c(=O)n2C [AZD7648] + C[C@@H]1COCCN1C2=NC(=NC(=C2)C3(CC3)[S@](=N)(=O)C)C4=C5C=CNC5=NC=C4 [AZD6738] (first compound max 10 µM, 7x7, partner max 10 µM)	-0.0179
CC(=O)c1c(C)c2cnc(Nc3ccc(N4CCNCC4)cn3)nc2n(C2CCCC2)c1=O [Palbociclib] + CC1(C)CCC(CN2CCN(c3ccc(C(=O)NS(=O)(=O)c4ccc(NCC5CCOCC5)c([N+](=O)[O-])c4)c(Oc4cnc5[nH]ccc5c4)c3)CC2)=C(c2ccc(Cl)cc2)C1 [Venetoclax] (first compound max 10 µM, 7x7, partner max 1 µM)	-0.0571

Let us examine a further case.
IN: Tell me its Bliss excess given CN(C)CCCOc1ccc(-c2ccc3ncc4c(c3c2)n(C2CCOCC2)c(=O)n4C)cn1 [AZD0156] + C=CCn1c(=O)c2cnc(Nc3ccc(N4CCN(C)CC4)cc3)nc2n1-c1cccc(C(C)(C)O)n1 [AZD1775] (first compound max 1 µM, partner max 1 µM) as the entry.
OUT: -0.095

====

test system: WM1552C (Melanoma); assay: Bliss excess, mean over the matrix (fraction); higher = more synergy
# Bliss excess values compiled below
# respond with the number and nothing more

Below, each entry is followed by its recorded Bliss excess result.
Molecule	Assay Target	Recorded Value
CN(C)CCCOc1ccc(-c2ccc3ncc4c(c3c2)n(C2CCOCC2)c(=O)n4C)cn1 [AZD0156] + CCN(CCO)CCCOc1ccc2c(Nc3cc(CC(=O)Nc4cccc(F)c4)[nH]n3)ncnc2c1 [AZD2811] (first compound max 1 µM, 7x7, partner max 1 µM)	WM1552C (Melanoma)	-0.0135
COc1cccc2c1C(=O)c1c(O)c3c(c(O)c1C2=O)C[C@@](O)(C(=O)CO)C[C@@H]3O[C@H]1C[C@H](N)[C@H](O)[C@H](C)O1 [Doxorubicin] + Cc1cc2ncnn2cc1Nc1ncc2c(n1)n(C1CCOCC1)c(=O)n2C [AZD7648] (first compound max 1 µM, 7x7, partner max 10 µM)	WM1552C (Melanoma)	0.0398

IN: Tell me its Bliss excess given NC1(C(=O)N[C@@H](CCO)c2ccc(Cl)cc2)CCN(c2ncnc3[nH]ccc23)CC1 [Capivasertib] + C[C@@H]1COCCN1C2=NC(=NC(=C2)C3(CC3)[S@](=N)(=O)C)C4=C5C=CNC5=NC=C4 [AZD6738] (first compound max 10 µM, 7x7, partner max 10 µM) as the entry.
OUT: -0.062

IN: Tell me its Bliss excess given Cc1c2c(nn1C)CSCc1cc(n(C)n1)CSc1cc(c3ccccc3c1)OCCCc1c(C(=O)O)n(C)c3c-2c(Cl)ccc13 [AZD5991] + C=CCn1c(=O)c2cnc(Nc3ccc(N4CCN(C)CC4)cc3)nc2n1-c1cccc(C(C)(C)O)n1 [AZD1775] (first compound max 1 µM, partner max 1 µM) as the entry.
OUT: -0.0651

====

tested on: HCC70 (Breast Carcinoma); assay: Bliss excess, mean over the matrix (fraction); higher = more synergy
Value Type: Bliss excess
# respond with the number and nothing more

Below, each entry is followed by its recorded Bliss excess result.
Compound	Assay Target	Recorded Value
CN(C)CCCOc1ccc(-c2ccc3ncc4c(c3c2)n(C2CCOCC2)c(=O)n4C)cn1 [AZD0156] + O=C(c1cc(Cc2n[nH]c(=O)c3ccccc23)ccc1F)N1CCN(C(=O)C2CC2)CC1 [Olaparib] (first compound max 3 µM, partner max 3 µM)	HCC70 (Breast Carcinoma)	-0.0548
O=C(c1cc(Cc2n[nH]c(=O)c3ccccc23)ccc1F)N1CCN(C(=O)C2CC2)CC1 [Olaparib] + CC1(C)CCC(CN2CCN(c3ccc(C(=O)NS(=O)(=O)c4ccc(NCC5CCOCC5)c([N+](=O)[O-])c4)c(Oc4cnc5[nH]ccc5c4)c3)CC2)=C(c2ccc(Cl)cc2)C1 [Venetoclax] (first compound max 10 µM, 7x7, partner max 1 µM)	HCC70 (Breast Carcinoma)	-0.0472
Cc1c2c(nn1C)CSCc1cc(n(C)n1)CSc1cc(c3ccccc3c1)OCCCc1c(C(=O)O)n(C)c3c-2c(Cl)ccc13 [AZD5991] + Cn1cnc2c(F)c(Nc3ccc(Br)cc3Cl)c(C(=O)NOCCO)cc21 [Selumetinib] (first compound max 1 µM, 7x7, partner max 3 µM)	HCC70 (Breast Carcinoma)	0.099
CC(=O)Nc1cccc(-n2c(=O)n(C3CC3)c(=O)c3c(Nc4ccc(I)cc4F)n(C)c(=O)c(C)c32)c1 [Trametinib] + Cc1nc(-c2cn3c(n2)-c2ccc(-c4cnn(C(C)(C)C(N)=O)c4)cc2OCC3)n(C(C)C)n1 [Taselisib] (first compound max 1 µM, 7x7, partner max 10 µM)	HCC70 (Breast Carcinoma)	0.149
CCc1c2c(nc3ccc(O)cc13)-c1cc3c(c(=O)n1C2)COC(=O)[C@]3(O)CC [SN-38] + O=C(c1cc(Cc2n[nH]c(=O)c3ccccc23)ccc1F)N1CCN(C(=O)C2CC2)CC1 [Olaparib] (first compound max 0.3 µM, 7x7, partner max 10 µM)	HCC70 (Breast Carcinoma)	0.0458

IN: Tell me its Bliss excess given Cc1nc(-c2cn3c(n2)-c2ccc(-c4cnn(C(C)(C)C(N)=O)c4)cc2OCC3)n(C(C)C)n1 [Taselisib] + O=C(Nc1ccc2[nH]nc(-c3ccncc3)c2c1)[C@@H]1CCN(CC(=O)N2CCN(c3ccc(-c4ncccn4)cc3)CC2)C1 [SCH772984] (first compound max 10 µM, 7x7, partner max 5 µM) as the entry.
OUT: 0.0593
